Source: patent US20030162777A1

Biological target: human 5HT1A-serotonergic receptor (Homo sapiens, UniProt P08908)
Construct: cell membranes used
Sequence (P08908 1-422): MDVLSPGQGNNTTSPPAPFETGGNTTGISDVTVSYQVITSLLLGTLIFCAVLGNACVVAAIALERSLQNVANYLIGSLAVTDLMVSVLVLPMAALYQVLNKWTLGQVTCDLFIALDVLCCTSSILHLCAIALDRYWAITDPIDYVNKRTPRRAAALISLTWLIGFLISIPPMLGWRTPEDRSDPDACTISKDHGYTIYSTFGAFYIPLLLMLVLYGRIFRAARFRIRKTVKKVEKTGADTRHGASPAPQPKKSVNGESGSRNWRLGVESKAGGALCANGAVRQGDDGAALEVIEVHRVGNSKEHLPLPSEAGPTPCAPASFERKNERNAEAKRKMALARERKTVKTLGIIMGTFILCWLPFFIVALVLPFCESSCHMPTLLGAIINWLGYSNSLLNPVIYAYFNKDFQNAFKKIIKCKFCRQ
Experiment: Radioligand binding to recombinant 5-HT1A receptors
Settings: [3H]8-OH-DPAT 1 nM, membranes of HeLa cells with human 5-HT1A receptor; Ki from IC50 by Cheng & Prusoff; read-out: Binding affinity for 5HT1A receptors, Ki
Note to self: use criterion met only for Ki readings below 20 nM; a reading exactly at 20 nM still gets criterion not met.

Check out these entries, answers already filled in.
COc1ccc(C(=O)N2c3ccccc3CCC2CN(C)CCOc2ccccc2OC)cc1 (centres unmarked) [Example 77A5] = criterion met
N#Cc1ccc(S(=O)(=O)N2c3ccccc3CCC2CN2CCN(c3cccc4[nH]ccc34)CC2)cc1 (centres unmarked) [Example 70A5] = criterion not met
O=C(C1CCCCC1)N1c2ccccc2CCC1CN1CCN(c2cccc(Cl)c2)CC1 (centres unmarked) [Example 72A23] = criterion not met

Record COc1cc(C)ccc1N1CCN(CC2CCc3ccccc3N2C(=O)C2CCCCC2)CC1 (centres unmarked) [Example 86A] : is its Ki strictly below 20 nM?
criterion met

Record CN(CCOc1ccccc1Cl)CC1CCc2ccccc2N1C(=O)C1CCCCC1 (centres unmarked) [Example 72A84] : is its Ki strictly below 20 nM?
criterion met

Record Cc1ccc(N2CCN(CC3CCc4ccccc4N3C(=O)C3CCCCC3)CC2)c2cc[nH]c12 (centres unmarked) [Example 62A5] : is its Ki strictly below 20 nM?
criterion not met

Record CC(C)(C)OC(=O)N1CCC[C@H]1C(=O)N1c2ccccc2CCC1CN1CCN(c2cccc3[nH]ccc23)CC1 (some centres unmarked) [Example 71A5] : is its Ki strictly below 20 nM?
criterion not met

* * *

Molecular target: human 5HT1A-serotonergic receptor (Homo sapiens, UniProt P08908)
Construct: cell membranes used
Sequence (P08908 1-422): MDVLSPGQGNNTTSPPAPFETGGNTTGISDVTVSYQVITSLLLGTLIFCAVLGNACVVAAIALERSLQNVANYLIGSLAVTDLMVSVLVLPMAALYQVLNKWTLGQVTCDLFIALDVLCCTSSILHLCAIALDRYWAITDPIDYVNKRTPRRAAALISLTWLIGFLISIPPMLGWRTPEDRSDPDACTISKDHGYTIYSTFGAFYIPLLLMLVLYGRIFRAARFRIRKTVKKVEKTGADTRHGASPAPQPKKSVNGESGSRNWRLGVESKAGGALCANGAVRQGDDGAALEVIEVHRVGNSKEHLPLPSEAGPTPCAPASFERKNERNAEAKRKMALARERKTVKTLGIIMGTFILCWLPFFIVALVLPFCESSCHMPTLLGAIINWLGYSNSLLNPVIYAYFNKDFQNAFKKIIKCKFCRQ
Test: Radioligand binding to recombinant 5-HT1A receptors
Conditions: [3H]8-OH-DPAT 1 nM, membranes of HeLa cells with human 5-HT1A receptor; Ki from IC50 by Cheng & Prusoff; read-out: Binding affinity for 5HT1A receptors, Ki
Note to self: use y only for Ki readings below 9 nM; a reading exactly at 9 nM still gets n.

Record O=C(C1CCCCC1)N1c2ccccc2CCC1CN1CCC(c2cccc(Cl)c2Cl)CC1 (centres unmarked) : is its Ki strictly below 9 nM?
n

Record O=C(NCCc1ccccc1)N1c2ccccc2CCC1CN1CCN(c2cccc3[nH]ccc23)CC1 (centres unmarked) : is its Ki strictly below 9 nM?
n

Record COc1ccc(C(F)(F)F)cc1N1CCN(CC2CCc3ccccc3N2C(=O)C2CCCCC2)CC1 (centres unmarked) : is its Ki strictly below 9 nM?
y

Record O=C(N1CCCCC1)N1c2ccccc2CCC1CN1CCN(c2cccc3[nH]ccc23)CC1 (centres unmarked) : is its Ki strictly below 9 nM?
n

Record CC(C)(C)OC(=O)NCC(=O)N1c2ccccc2CCC1CN1CCN(c2cccc3[nH]ccc23)CC1 (centres unmarked) [Example 71A] : is its Ki strictly below 9 nM?
n

Record COc1cc(F)ccc1N1CCN(CC2CCc3ccccc3N2C(=O)Cc2cccs2)CC1 (centres unmarked) : is its Ki strictly below 9 nM?
y

Record CN(CCOc1cccc2[nH]ccc12)CC1CCc2ccccc2N1C(=O)C1CCCCC1 (centres unmarked) : is its Ki strictly below 9 nM?
y

Record COc1ccccc1N1CCN(CCC2CCc3ccccc3N2C(=O)C2CCCCC2)CC1 (centres unmarked) : is its Ki strictly below 9 nM?
y

Record O=C(Cc1ccsc1)N1c2ccccc2CCC1CN1CCN(c2cccc3[nH]ccc23)CC1 (centres unmarked) : is its Ki strictly below 9 nM?
y

Record Cc1cccc(NC(=O)N2c3ccccc3CCC2CN2CCN(c3cccc4[nH]ccc34)CC2)c1 (centres unmarked) : is its Ki strictly below 9 nM?
n

Record O=C(C1CC=CCC1)N1c2ccccc2CCC1CN1CCN(c2cccc3[nH]ccc23)CC1 (centres unmarked) : is its Ki strictly below 9 nM?
y

Record CNC(=S)N1c2ccccc2CCC1CN1CCN(c2cccc3[nH]ccc23)CC1 (centres unmarked) : is its Ki strictly below 9 nM?
n

* * *

Provide the recorded inhibition at 10 mg/kg for the entries that follow.
Molecular target: 5-HT1A receptors (Rattus norvegicus)
Construct: from tissue; host or cells: whole animal: male Sprague-Dawley rats (post-synaptic 5-HT1A receptors)
Sequence (P19327 whole entry): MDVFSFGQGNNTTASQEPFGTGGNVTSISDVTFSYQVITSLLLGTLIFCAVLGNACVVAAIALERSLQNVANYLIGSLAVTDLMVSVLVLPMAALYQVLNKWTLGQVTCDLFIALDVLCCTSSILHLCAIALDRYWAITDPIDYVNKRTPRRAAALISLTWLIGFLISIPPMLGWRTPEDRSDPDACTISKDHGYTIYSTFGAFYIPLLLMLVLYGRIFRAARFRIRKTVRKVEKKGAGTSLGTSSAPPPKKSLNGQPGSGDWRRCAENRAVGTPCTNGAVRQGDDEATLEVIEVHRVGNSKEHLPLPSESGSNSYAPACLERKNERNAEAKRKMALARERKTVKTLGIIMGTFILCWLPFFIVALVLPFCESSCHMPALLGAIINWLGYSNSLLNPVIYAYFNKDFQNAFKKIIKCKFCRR
Experiment: Inhibition of stereotypy (rhythmic forepaw treading) induced by 8-OH-DPAT in rats (post-synaptic antagonism)
Format: in vivo
Settings: rat, 10 mg/kg p.o., 1 h before 8-OH-DPAT (1 mg/kg s.c.)
Experimental: The inhibitory effect of 5-HT1A-receptor antagonists on stereotyped forepaw treading induced in rats by subcutaneous injection of 8-OH-DPAT was evaluated by the method of Tricklebank (Tricklebanket al., Eur. J. Pharmacol., 117: 15, 1985) with minor modifications as described below. […] The appearance of the symptom induced by postsynaptic stimulation of 5-HT1A receptors was noted, and the intensity was scored using an intensity scale in which: 0=absent, 1=equivocal, 2=present and 3=intense. […]
Give bare numbers, in %.

O=C(C1CCCCC1)N1c2ccc(F)cc2CCC1CN1CCN(c2cccc3[nH]ccc23)CC1 (stereo not shown) [Example 18] = 92
O=C(C1CC=CCC1)N1c2ccccc2CCC1CN1CCN(c2cccc3[nH]ccc23)CC1 (stereo not shown) [Example 24A1] = 100
O=C(C1CCCC1)N1c2ccccc2CCC1CN1CCN(c2cccc3[nH]ccc23)CC1 (stereo not shown) [Example 24A3] = 93

Kindly review the next compound as well.
Consider the compound shown here: Cc1[nH]c2cccc(N3CCN(CC4CCc5ccccc5N4C(=O)C4CCCCC4)CC3)c2c1C (stereo not shown) [Example 35A13] What is its recorded inhibition at 10 mg/kg?
95

* * *

Molecular target: human 5HT1A-serotonergic receptor (Homo sapiens)
Construct: cell membranes used
Assay: Radioligand binding to recombinant 5-HT1A receptors
Settings: [3H]8-OH-DPAT 1 nM, membranes of HeLa cells with human 5-HT1A receptor; Ki from IC50 by Cheng & Prusoff; read-out: Binding affinity for 5HT1A receptors, Ki
Provide the recorded pKi for the entries that follow.
Numbers only, as −log10 of the molar value.

Reference set (4 entries):
Cn1ccc2c(N3CCN(C[C@H]4CCc5ccccc5N4C(=O)C4CCCCC4)CC3)cccc21 = 8.30
O=C(C1CCCCC1)N1c2ccccc2CCC1CN1CCN(Cc2cc(Cl)ccc2Cl)CC1 (centres unmarked) = 8.62
O=C(c1c(F)cccc1F)N1c2ccccc2CCC1CN1CCN(c2cccc3[nH]ccc23)CC1 (centres unmarked) = 7.46
O=C(C1CCCCC1)N1c2ccccc2CCC1CN1CCC(c2ccccc2)CC1 (centres unmarked) = 7.33

Dear colleague, could you send me pKi for each of the items below? Thanks.
1. O=C(C1CCCCC1)N1c2ccccc2CCC1CN1CCN(Cc2ccccc2Br)CC1 (centres unmarked)
2. CC(C)(C)OC(=O)N1CCC[C@@H]1C(=O)N1c2ccccc2CCC1CN1CCN(c2cccc3[nH]ccc23)CC1 (some centres unmarked)
3. O=C(COc1ccc(Cl)cc1)N1c2ccccc2CCC1CN1CCN(c2cccc3[nH]ccc23)CC1 (centres unmarked)
4. CN(CCOc1cccc2cccnc12)CC1CCc2ccccc2N1C(=O)C1CCCCC1 (centres unmarked)
5. O=S(=O)(Cc1ccccc1)N1c2ccccc2CCC1CN1CCN(c2cccc3[nH]ccc23)CC1 (centres unmarked)
6. CC(C)CC(=O)N1c2ccccc2CCC1CN1CCN(c2nccc3ccccc23)CC1 (centres unmarked) [Example 75A]
7. O=C(C1CCC1)N1c2ccccc2CCC1CN1CCN(c2cccc3c2OCCO3)CC1 (centres unmarked)

1. 7.51
2. 7.34
3. 7.81
4. 8.41
5. 8.33
6. 8.49
7. 7.72

Dear colleague, could you send me pKi for each of the items below? Thanks.
1. O=C(C1CCCCC1)N1c2ccccc2CCC1CN1CCC(c2c(F)cccc2Cl)CC1 (centres unmarked)
2. COc1ccccc1N1CCN(CC2CCc3ccccc3N2C(=O)C2CCCCC2)CC1 (centres unmarked)
3. O=C(C1CCCCC1)N1c2ccccc2CCC1CN1CCN(c2cc(C(F)(F)F)nc3ccccc23)CC1 (centres unmarked)
4. CC(C)(C)NC(=O)N1c2ccccc2CCC1CN1CCN(c2cccc3c2OCCO3)CC1 (centres unmarked)
5. O=C(c1ccco1)N1c2ccccc2CCC1CN1CCN(c2cccc3c2OCCO3)CC1 (centres unmarked)
6. O=C(C1CCCCC1)N1c2ccccc2CCC1CN1CCN(c2ccccn2)CC1 (centres unmarked)

8.21
9.52
7.46
8.64
8.30
8.11

Dear colleague, could you send me pKi for each of the items below? Thanks.
1. Cc1ccc(S(=O)(=O)n2ccc(C(=O)N3c4ccccc4CCC3CN3CCN(c4cccc5[nH]ccc45)CC3)c2)cc1 (centres unmarked)
2. CCOc1cc(Cl)ccc1N1CCN(CC2CCc3ccccc3N2C(=O)C2CCCCC2)CC1 (centres unmarked)
3. CN(CC(=O)N1c2ccccc2CCC1CN1CCN(c2cccc3[nH]ccc23)CC1)C(=O)c1ccccc1 (centres unmarked)
4. CC(C)C(=O)N1c2ccccc2CCC1CN1CCN(c2cccc3[nH]ccc23)CC1 (centres unmarked)
5. O=S(=O)(c1ccccc1)N1c2ccccc2CCC1CN1CCN(c2cccc3c2OCCO3)CC1 (centres unmarked)

1: 7.48; 2: 8.24; 3: 7.46; 4: 7.61; 5: 7.67
